TEST METHOD NOTES: qHTS assay to identify small molecule antagonists of the estrogen related receptor (ERR) signaling pathway from Tox21 library (AID 1224848); also: % is scaled to controls: 0 for no effect and ±100 for the full control effect; nearly all actives have a fitted effect of over 50% in size
PROTOCOL CONDITIONS: ERR reporter cell line, luciferase antagonist mode, 18 h; series mostly up to 92.4 µM
Records with an inconclusive call do not appear. The source made the active and inactive calls. Calls follow the shape of the dose curve; as a rule, active = well fitted inhibition curve with a large enough effect in the repeat runs; inconclusive = weak or mixed curves; inactive = no such curve, though single readings can be large or run the other way.
Returns: one label drawn from yes for active, no for inactive

Reference set, count: 4
COMPOUND: NS(=O)(=O)c1ccc(N2CCCCS2(=O)=O)cc1
CLASS LABEL: no
--
COMPOUND: CCOc1ccc(N)c([N+](=O)[O-])c1
CLASS LABEL: no
--
COMPOUND: COc1ccc(C(=O)Nc2nc3ccccc3c(NCc3ccccc3)c2C#N)cc1
CLASS LABEL: no
--
COMPOUND: N=c1ccn2c(n1)O[C@H]1[C@H](O)[C@@H](CO)O[C@H]12
CLASS LABEL: no

# ---- query compound ----
Called result for CCNc1cc(O)ccc1C
no

---

TEST METHOD NOTES: qHTS RealTime-Glo MT Cell Viability Assay in HEK293 cells - 24 hour (AID 1224886); also: top concentration of the series differs between compounds; % is scaled to controls: 0 for no effect and ±100 for the full control effect; nearly all actives have a fitted effect of over 50% in size
PROTOCOL CONDITIONS: RealTime-Glo luminescence; series mostly up to 76.8 µM
Results filed as inconclusive are left out. Active and inactive are the calls of the source. The call rests on the fitted dose curve; in most records, active means well fitted cell-killing curve with a large enough effect in the repeat runs; inconclusive means weak or mixed curves, or effect the other way; inactive means flat fitted curve, though single readings scatter.
Output constraint: value belongs to 1 (active), 0 (inactive)

Could you kindly confirm the outcome this assay logged for CC[N+](C)(CC)CCOC(=O)C(O)(c1ccccc1)C1CCCCC1 (stereo not given) ?
0

---

SYSTEM NAME: Aromatase (Homo sapiens)
TEST METHOD NOTES: qHTS assay to identify aromatase inhibitors (AID 743083); also: nearly all actives have a fitted effect of over 55% in size
PROTOCOL CONDITIONS: MCF-7 aro ERE, testosterone-driven ERE luciferase, 24 h; series mostly up to 70.3 µM
Inconclusive results are not listed. Calls of active or inactive are those of the source. Calls follow the shape of the dose curve; as a rule, active = well fitted inhibition curve with a large enough effect in the repeat runs; inconclusive = weak or mixed curves; inactive = no such curve, though single readings can be large or run the other way.
# valid calls are active, inactive; nothing else

COMPOUND: OC(CN1CCC(Cc2ccc(F)cc2)CC1)c1ccc(Cl)cc1 (stereo not given)
SYSTEM NAME: Aromatase (Homo sapiens)
CLASS LABEL: inactive
//
COMPOUND: O=S(c1cc(Cl)cc(Cl)c1O)c1cc(Cl)cc(Cl)c1O
SYSTEM NAME: Aromatase (Homo sapiens)
CLASS LABEL: inactive
//
COMPOUND: Nc1cc(C(=O)O)c(O)c(S(=O)(=O)O)c1
SYSTEM NAME: Aromatase (Homo sapiens)
CLASS LABEL: inactive
//
COMPOUND: O=C1OC(CN2CCOCC2)CN1/N=C/c1ccc([N+](=O)[O-])o1 (stereo not given)
SYSTEM NAME: Aromatase (Homo sapiens)
CLASS LABEL: inactive
//
COMPOUND: O=CC1CC=CCC1 (stereo not given)
SYSTEM NAME: Aromatase (Homo sapiens)
CLASS LABEL: inactive

Record request — test call for CCCCCCCCCCCCCCCCOS(=O)(=O)O
inactive

Per the assay record, what outcome was assigned to COC(=O)C1=C(C)NC(COC(N)=O)=C(C(=O)OC(C)C)C1c1cccc(Cl)c1Cl (stereo not given) ?
active

Name the outcome recorded for Cc1[nH]c(C)c(Cl)c(=O)c1Cl in the assay.
inactive

Please state the recorded outcome for this compound: O=[N+]([O-])c1cccc(S(=O)(=O)O)c1
inactive

Dear colleague, could you share the recorded outcome for CCCOC(C(=O)OC1CCN(C)CC1)(c1ccccc1)c1ccccc1 when you have a moment?
inactive

I would be grateful if you could indicate the recorded call for OC(C#CCN1CCCC1)(c1ccccc1)c1ccccc1 .
inactive

Returns: the outcome recorded for CCCCc1nc2cccnc2n1Cc1ccc(-c2ccccc2-c2nnn[nH]2)cc1 in this assay.
inactive

Dear all, I need the recorded test outcome for CC(C)Nc1ccc(NC(C)C)c2c1C(=O)c1ccccc1C2=O , thank you.
inactive

GET /call?item= C=CC(=O)OCCOCCOC(=O)C=C returns the recorded outcome of this test.
active

Look up the recorded call for C[C@@H]1C[C@H]2O[C@@]3(O[C@@H]2C(C)(C)O)[C@H](O)[C@@]2(C)[C@@H]4CC[C@H]5C(C)(C)[C@@H](O[C@@H]6OC[C@@H](O)[C@H](O)[C@H]6O)CC[C@@]56C[C@@]46CC[C@]2(C)[C@@H]13 in this test.
inactive

I'd appreciate the recorded outcome for O=C1C(O)=C(O)C(=O)C(O)=C1O from this test.
inactive

Which outcome did this test record for the compound C1CCCNCCC1 ?
inactive

Name the outcome recorded for OCCNCc1ccccc1 in the assay.
inactive

Can you look up the reported call for O=C(O)c1ccccc1Cl for me?
inactive

Record request — test call for COc1cccc(N(C)C(=S)Oc2ccc3c(c2)CCCC3)n1
inactive

Recorded test outcome, item CCCCCCCC/C=C\CCCCCCCC(=O)OCC
inactive

Field: outcome | Entry: NCCCN1CCOCC1
inactive

Record lookup: outcome of this test for Cn1c(=O)cc(Oc2ccc(F)cc2F)c2cnc(NCC(C)(C)O)nc21 ?
inactive

Please let me know the test result on file for NCc1ccccc1Sc1ccccc1CO .
inactive

// outcome(item) with item = CCN(CC)CCOC(=O)C(Cc1cccc2ccccc12)CC1CCCO1 (stereo not given)
inactive

---

SYSTEM NAME: Cytochrome P450 2C9 (Homo sapiens) (UniProt P11712)
Sequence (P11712 whole entry, looked up): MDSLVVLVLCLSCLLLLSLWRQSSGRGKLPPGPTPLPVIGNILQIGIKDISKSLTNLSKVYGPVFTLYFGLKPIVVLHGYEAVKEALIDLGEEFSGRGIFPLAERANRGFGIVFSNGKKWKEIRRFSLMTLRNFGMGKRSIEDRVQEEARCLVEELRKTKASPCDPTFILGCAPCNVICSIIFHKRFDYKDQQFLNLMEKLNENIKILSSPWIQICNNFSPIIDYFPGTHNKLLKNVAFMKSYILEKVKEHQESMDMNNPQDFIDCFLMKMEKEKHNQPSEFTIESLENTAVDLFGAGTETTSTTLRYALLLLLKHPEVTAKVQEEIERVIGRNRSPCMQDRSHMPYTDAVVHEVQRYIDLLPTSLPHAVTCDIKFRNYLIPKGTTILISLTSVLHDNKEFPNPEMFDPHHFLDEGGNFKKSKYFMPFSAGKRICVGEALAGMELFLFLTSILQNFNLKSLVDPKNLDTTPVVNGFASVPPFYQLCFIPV
TEST METHOD NOTES: Cytochrome P450 Family 2 Subfamily C Member 9 (CYP2C9) small molecule antagonists: luciferase reporter qHTS assay (AID 1671198); also: nearly all actives have a fitted effect of over 50% in size
PROTOCOL CONDITIONS: P450-Glo CYP2C9 enzyme assay, luciferin luminescence; series mostly up to 115 µM
Results filed as inconclusive are left out. The source made the active and inactive calls. Calls come from the whole dose curve; as a rule, active = well fitted inhibition curve with a large enough effect in the repeat runs; inconclusive = weak or mixed curves; inactive = no such curve, though single readings can be large or run the other way.
Answer with one of the outcomes given here: active, inactive

Solved cases (5 shown):
COMPOUND: ClCCOCCOCCCl
CLASS LABEL: inactive
--
COMPOUND: O=C(CS)Nc1ccccc1
CLASS LABEL: active
--
COMPOUND: O=[N+]([O-])c1ccc2[nH]ncc2c1
CLASS LABEL: inactive
--
COMPOUND: COC(=O)C1=C(C)NC(COC(N)=O)=C(C(=O)OC(C)C)C1c1cccc(Cl)c1Cl (stereo unspecified)
CLASS LABEL: active
--
COMPOUND: C[C@@H]1C[C@H]2[C@@H]3CCC4=CC(=O)C=C[C@]4(C)[C@@]3(F)[C@@H](O)C[C@]2(C)[C@@]1(O)C(=O)COC(=O)c1ccncc1
CLASS LABEL: active

I'd appreciate the recorded outcome for O=C1[C@H]2CCCC[C@H]2C(=O)N1CCCCN1CCN(c2nsc3ccccc23)CC1 from this test.
inactive

---

TEST METHOD NOTES: qHTS assay to identify small molecule agonists of the peroxisome proliferator-activated receptor delta (PPARd) signaling pathway - cell viability counter screen (AID 743211); also: nearly all actives have a fitted effect of over 55% in size
PROTOCOL CONDITIONS: PPARd-bla HEK293H viability, CellTiter-Glo luminescence, 17 h; series mostly up to 62.6 µM
Inconclusive results are not listed. Calls of active or inactive are those of the source. Calls come from the whole dose curve; as a rule, active = well fitted cell-killing curve with a large enough effect in the repeat runs; inconclusive = weak or mixed curves; inactive = no such curve, though single readings can be large or run the other way.
Use one of these outcomes when replying: T for active, F for inactive

COMPOUND: NCc1ccccc1Sc1ccccc1CO
CLASS LABEL: F
--
COMPOUND: CNCCCCOc1ccccc1Cc1ccccc1
CLASS LABEL: T
--
COMPOUND: CCc1cc(C2=C(C(=O)O)N(c3ccccc3C(F)(F)F)S(=O)(=O)c3ccccc32)cc2c1OCO2
CLASS LABEL: F
--
COMPOUND: O=C(O)c1ccc(S(=O)(=O)O)cc1C(=O)O
CLASS LABEL: F
--
COMPOUND: CC(C)(COC(=O)c1ccccc1)COC(=O)c1ccccc1
CLASS LABEL: F
--
COMPOUND: CCNc1cc(O)ccc1C
CLASS LABEL: F
--
COMPOUND: C=CC1CC2C=CC1C2 (stereo not drawn)
CLASS LABEL: F
--
COMPOUND: C[N+]1(CC2COC(c3ccccc3)(C3CCCCC3)O2)CCCCC1 (stereo not drawn)
CLASS LABEL: F

How did this test come out for c1cc(CCCc2ccncc2)ccn1 ?
F

What did the test return for O=C1CCCCCCCCCCCC(=O)OCCO1 ?
F

---

TEST METHOD NOTES: qHTS assay to test for compound auto fluorescence at 535 nm (green) in HepG2 cell free culture (AID 720686); also: % is scaled to controls: 0 for no effect and ±100 for the full control effect
PROTOCOL CONDITIONS: Cell-free medium, green autofluorescence 485/535 nm; series mostly up to 91.3 µM
Activity calls are given as the source filed them. The call rests on the fitted dose curve; in most records, active means well fitted curve in the direction sought with a large enough effect in the repeat runs; inconclusive means weak or mixed curves; inactive means flat fitted curve, though single readings scatter.
VALUE KIND: fluorescence, % of fluorescein control

Below: 10 compounds and their reported fluorescence, % of fluorescein control.
COMPOUND: C#Cc1cccc(Nc2ncnc3cc(OCCOC)c(OCCOC)cc23)c1
VALUE KIND: fluorescence, % of fluorescein control
RESULT: inactive
//
COMPOUND: CCCCCCCCCCCCCCCCOS(=O)(=O)O
VALUE KIND: fluorescence, % of fluorescein control
RESULT: inactive
//
COMPOUND: CCN(CC)CCOC(=O)C(Cc1cccc2ccccc12)CC1CCCO1 (stereo not drawn)
VALUE KIND: fluorescence, % of fluorescein control
RESULT: 0.0151% [at 18.6 µM] (inactive)
//
COMPOUND: CC1(c2ccccc2)OC(C(=O)O)=CC1=O (stereo not drawn)
VALUE KIND: fluorescence, % of fluorescein control
RESULT: inactive
//
COMPOUND: CC/C=C\CCOC(=O)CC
VALUE KIND: fluorescence, % of fluorescein control
RESULT: inactive
//
COMPOUND: C[N+](C)(C)CCOC(=O)CCC(=O)OCC[N+](C)(C)C
VALUE KIND: fluorescence, % of fluorescein control
RESULT: inactive
//
COMPOUND: O=S(=O)(Oc1ccc(Cl)cc1)c1ccccc1
VALUE KIND: fluorescence, % of fluorescein control
RESULT: inactive
//
COMPOUND: CC(=O)[O][Al][O]C(C)=O
VALUE KIND: fluorescence, % of fluorescein control
RESULT: inactive
//
COMPOUND: CN(C)c1ccc(/C=C/c2ccc([N+](=O)[O-])cc2)cc1
VALUE KIND: fluorescence, % of fluorescein control
RESULT: -0.0291% [at 3.72 µM] (inactive)
//
COMPOUND: O=C1OC(=O)C2C3C=CC(C3)C12 (stereo not drawn)
VALUE KIND: fluorescence, % of fluorescein control
RESULT: inactive

State recorded fluorescence, % of fluorescein control for all listed compounds.
1. O=C1CCC(=O)O1
2. CCCCCCCCCCCCCCOS(=O)(=O)O
3. CCCCCCCCCCCC(=O)OC[C@@H](O)[C@H]1OC[C@H](OCCO)[C@H]1OCCO

1. inactive
2. inactive
3. inactive
